# assayed target: T1, recombinant human IL-13 (human, UniProt P35225 35-146)
# T1 construct: also called rh-IL-13; hIL-13
# T1 sequence (P35225 35-146 limits assumed): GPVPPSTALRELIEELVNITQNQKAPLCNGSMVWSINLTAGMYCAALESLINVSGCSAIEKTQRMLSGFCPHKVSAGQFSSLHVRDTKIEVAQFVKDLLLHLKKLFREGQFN
# experimental details: SPR
kon values, listed per item

binder	kon (M⁻¹ s⁻¹)
BDG38.077 (antibody, V domains shown, IgG1) VH: QMQLVESGGGVVQPGRSLTLSCAASGFAFRTYGMHWVRQAPGKGLEWVGVIWYDGSATHYADSVKGRFTITRDNSKNTLNLQMNSLRAEDTAVYYCVRAPQWYLTAEAFDLWGQGTMVTVSS VL: SYVLTQPPSVSVAPGETATITCGGALIGSRLVHWYQQKPGQAPVLVIYDDSDRPSRIPERFSGSNIGNTATLTISDVEAGDEADYYCQVWDHSSNTYVFGGGTKLTVL	1.66e+07
BDG38.080 (antibody, V domains shown, IgG1) VH: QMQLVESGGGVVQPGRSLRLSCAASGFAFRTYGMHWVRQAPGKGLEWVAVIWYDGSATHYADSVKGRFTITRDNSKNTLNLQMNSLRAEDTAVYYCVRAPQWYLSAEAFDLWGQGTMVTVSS VL: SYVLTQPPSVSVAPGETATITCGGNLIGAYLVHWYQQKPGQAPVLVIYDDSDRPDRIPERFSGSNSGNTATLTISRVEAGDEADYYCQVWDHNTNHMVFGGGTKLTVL	1.59e+07
BDG38.078 (antibody, V domains shown, IgG1) VH: QMQLVESGGGVVQPGRSLRLSCAASGFEFRTYGMHWVRQAPGKGLEWLGVIWYDGSNTHYADSVKGRFTITRDNSKNTLNLQMNSLRVEDTAVYYCVRAPQWYLTAEAFDLWGQGTMVTVSS VL: SYILTQPPSVSVAPGETATITCGGNLIGARLVHWYQQKPGQAPVLVIYDDSDRPSRIPERFSGSNIGNTATLTIERVEAGDEADYYCQVWDYYSDHMVFGGGTKLTVL	2.37e+06
